# experimental-system: T1, huCD3e-mFc (human, UniProt P07766 23-126)
# T1 construct: not shown: mFc, not described
# T1 sequence (P07766 23-126): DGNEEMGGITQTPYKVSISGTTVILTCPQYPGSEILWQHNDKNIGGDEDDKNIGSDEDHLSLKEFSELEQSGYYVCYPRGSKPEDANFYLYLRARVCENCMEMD
# procedure-text: Pool 3 screen
metric-name: Kd (µM)

binder	val
AC3842 (CD3.338) (scFv, V domains shown, Pool 3 format (remarks)) VH: EVQLVESGGGIVQPGGSLRLSCAASGFTFNTYAMNWVRQAPGKGLEWVGRIRTKTNDYATYYADSVKGRFTISRDDSKNTLYLQMNSLKTEDTAVYYCVRHENFGNSYVSWFAHWGQGTLVTVSS VL: ELVVTQEPSLTVSPGGTVTLTCRSSNGAVTSSNYANWVQQKPGQAPRGLIGGTNKRAPGTPARFSGSALGGKAALTLSGVQPEDEAVYYCALWYPNLWVFGGGTKLTVL	0.017
AC3809 (CD3.305) (scFv, V domains shown, Pool 3 format (remarks)) VH: EVQLVESGGGIVQPGGSLRLSCAASGFTFSTYAMNWVRQAPGKGLEWVGRIRTKRNDYATYYADSVKGRFTISRDDSKNTAYLQMNSLKTEDTAVYYCVRHENFGNSYVSWFAHWGQGTLVTVSS VL: ELVVTQEPSLTVSPGGTVTLTCRSSNGAVTSSNYANWVQQKPGQAPRGLIGGTNKRAPGTPARFSGSLEGGKAALTLSGVQPEDEAVYYCALWYPNLWVFGGGTKLTVL	0.00628
AC3834 (CD3.330) (scFv, V domains shown, Pool 3 format (remarks)) VH: EVQLVESGGGIVQPGGSLRLSCAASGFTFNTYAMNWVRQAPGKGLEWVGRIRTKTNDYATYYADSVKGRFTISRDDSKNTAYLQMNSLKTEDTAVYYCVRHENFGNSYVSWFAHWGQGTLVTVSS VL: ELVVTQEPSLTVSPGGTVTLTCRSSNGAVTSSNYANWVQQKPGQAPRGLIGGTNKRAPGTPARFSGSGLGGKAALTLSGVQPEDEAVYYCALWYPNLWVFGGGTKLTVL	0.0234
AC3820 (CD3.316) (scFv, V domains shown, Pool 3 format (remarks)) VH: EVQLVESGGGIVQPGGSLRLSCAASGFTFSTYAMNWVRQAPGKGLEWVGRIRTKRNDYATYYADSVKGRFTISRDDSKNTLYLQMNSLKTEDTAVYYCVRHENFGNSYVSWFAHWGQGTLVTVSS VL: ELVVTQEPSLTVSPGGTVTLTCRSSNGAVTSSNYANWVQQKPGQAPRGLIGGTNKRAPGTPARFSGSLDGGKAALTLSGVQPEDEAVYYCALWYPNLWVFGGGTKLTVL	0.00399
AC3660 (CD3.229) (bispecific antibody, V domains shown, Pool 2 format (remarks)) VH: EVQLVESGGGIVQPGGSLRLSCAASGFTFNTYAMNWVRQAPGKGLEWVGRIRTKTNNYATYYADSVKGRFTISRDDSKNTVYLQMNSLKTEDTAVYYCVRHENFGNSYVSWFAHWGQGTLVTVSS VL: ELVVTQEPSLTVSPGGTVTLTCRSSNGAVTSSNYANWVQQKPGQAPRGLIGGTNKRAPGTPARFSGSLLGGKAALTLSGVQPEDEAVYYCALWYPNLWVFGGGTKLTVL	0.0136
AC3838 (CD3.334) (scFv, V domains shown, Pool 3 format (remarks)) VH: EVQLVESGGGIVQPGGSLRLSCAASGFTFNTYAMNWVRQAPGKGLEWVGRIRTKTNDYATYYADSVKGRFTISRDDSKNTAYLQMNSLKTEDTAVYYCVRHENFGNSYVSWFAHWGQGTLVTVSS VL: ELVVTQEPSLTVSPGGTVTLTCRSSNGAVTSSNYANWVQQKPGQAPRGLIGGTNKRAPGTPARFSGSLDGGKAALTLSGVQPEDEAVYYCALWYPNLWVFGGGTKLTVL	0.0307
AC3836 (CD3.332) (scFv, V domains shown, Pool 3 format (remarks)) VH: EVQLVESGGGIVQPGGSLRLSCAASGFTFNTYAMNWVRQAPGKGLEWVGRIRTKTNDYATYYADSVKGRFTISRDDSKNTAYLQMNSLKTEDTAVYYCVRHENFGNSYVSWFAHWGQGTLVTVSS VL: ELVVTQEPSLTVSPGGTVTLTCRSSNGAVTSSNYANWVQQKPGQAPRGLIGGTNKRAPGTPARFSGSLEGGKAALTLSGVQPEDEAVYYCALWYPNLWVFGGGTKLTVL	0.0306
AC3884 (CD3.380) (scFv, V domains shown, Pool 3 format (remarks)) VH: EVQLVESGGGIVQPGGSLRLSCAASGFTFSTYAMNWVRQAPGKGLEWVGRIRTKRNNYTTYYADSVKGRFTISRDDSKNTVYLQMNSLKTEDTAVYYCVRHENFGNSYVSWFAHWGQGTLVTVSS VL: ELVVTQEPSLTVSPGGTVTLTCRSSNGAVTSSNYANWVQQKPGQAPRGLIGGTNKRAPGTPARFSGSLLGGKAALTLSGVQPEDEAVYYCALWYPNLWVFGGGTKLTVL	0.00454
AC3800 (CD3.296) (scFv, V domains shown, Pool 3 format (remarks)) VH: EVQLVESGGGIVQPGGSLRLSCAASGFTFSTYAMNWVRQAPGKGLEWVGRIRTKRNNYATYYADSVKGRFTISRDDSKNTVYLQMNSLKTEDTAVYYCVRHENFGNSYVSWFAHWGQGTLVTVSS VL: ELVVTQEPSLTVSPGGTVTLTCRSSNGAVTSSNYANWVQQKPGQAPRGLIGGTNKRAPGTPARFSGSLEGGKAALTLSGVQPEDEAVYYCALWYPNLWVFGGGTKLTVL	0.00474
AC3830 (CD3.326) (scFv, V domains shown, Pool 3 format (remarks)) VH: EVQLVESGGGIVQPGGSLRLSCAASGFTFNTYAMNWVRQAPGKGLEWVGRIRTKTNNYATYYADSVKGRFTISRDDSKNTVYLQMNSLKTEDTAVYYCVRHENFGNSYVSWFAHWGQGTLVTVSS VL: ELVVTQEPSLTVSPGGTVTLTCRSSNGAVTSSNYANWVQQKPGQAPRGLIGGTNKRAPGTPARFSGSLLGGKAGLTLSGVQPEDEAVYYCALWYPNLWVFGGGTKLTVL	0.00665
